# testedSystem: Tyrosine-protein kinase BTK (Homo sapiens)
# Sequence (Q06187 whole entry): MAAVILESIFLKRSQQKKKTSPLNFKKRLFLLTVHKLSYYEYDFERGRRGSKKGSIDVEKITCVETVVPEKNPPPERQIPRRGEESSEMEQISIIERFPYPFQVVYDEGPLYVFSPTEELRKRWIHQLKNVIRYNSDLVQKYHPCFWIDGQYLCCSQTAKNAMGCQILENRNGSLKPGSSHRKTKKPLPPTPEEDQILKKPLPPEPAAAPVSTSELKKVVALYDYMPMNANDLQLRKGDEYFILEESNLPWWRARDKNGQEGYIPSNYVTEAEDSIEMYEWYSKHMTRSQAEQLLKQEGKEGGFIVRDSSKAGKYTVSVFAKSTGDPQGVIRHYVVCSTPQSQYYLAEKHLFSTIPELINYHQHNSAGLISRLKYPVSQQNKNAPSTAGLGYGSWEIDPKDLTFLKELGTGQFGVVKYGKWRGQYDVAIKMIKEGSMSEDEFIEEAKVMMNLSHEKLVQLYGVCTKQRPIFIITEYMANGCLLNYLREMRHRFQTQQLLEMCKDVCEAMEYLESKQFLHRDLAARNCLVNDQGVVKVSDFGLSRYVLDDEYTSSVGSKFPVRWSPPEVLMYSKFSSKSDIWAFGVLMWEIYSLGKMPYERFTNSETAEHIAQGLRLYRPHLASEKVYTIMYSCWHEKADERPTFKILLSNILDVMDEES
attributeMeasured: IC50

Returns the measured IC50 for the input compound. Input: COC[C@H]1OC(=O)/C(=C/N(CCO)C(C)(C)C)C2=C(O)C(=O)C3=C([C@H](OC(C)=O)C[C@]4(C)[C@@H](O)CC[C@@H]34)[C@]21C
> 10 µM

###

# Test system: LNCaP
# assayDetails: Growth inhibition of human LNCap cells
# Format: functional, cell-based
attributeMeasured: IC50 (nM)
# output: bare number, implied unit nM

Some compounds with recorded IC50:
COC[C@H]1OC(=O)/C(=C/N2CCN(CCN3CCOCC3)CC2)C2=C(O)C(=O)C3=C([C@H](OC(C)=O)C[C@]4(C)[C@@H](O)CC[C@@H]34)[C@]21C ... 794
COC[C@H]1OC(=O)/C(=C/N2CCC(C(=O)OC)CC2)C2=C(O)C(=O)C3=C([C@H](OC(C)=O)C[C@]4(C)[C@@H](O)CC[C@@H]34)[C@]21C ... 506

Turning to the following compound.
Query for LNCaP: what IC50 does the record show for COC[C@H]1OC(=O)/C(=C/N(C)CCCN(C)C)C2=C(O)C(=O)C3=C([C@H](OC(C)=O)C[C@]4(C)[C@@H](O)CC[C@@H]34)[C@]21C ?
389

All values here come from ChEMBL document CHEMBL1143164.
